Test system: LG0703-F498-PDC complex spheroid growth;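 also: luminescence taken as a proxy for viable cell amount; percent of DMSO vehicle control where 100% means growth equal to vehicle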
Test: Anticancer human tumor LG0703-F498-PDC patient-derived lung adenocarcinoma cell line growth inhibition [AhR]
Conditions: second compound 0.1 µM; first compound 0.0316 µM; stronger effect = lower value
Here the recorded viability, T/C is given for each entry.
Please respond with the number in % and leave the unit unwritten.

compound	test_result
CC1COCCN1c1cc(C2(S(C)(=N)=O)CC2)nc(-c2ccnc3[nH]ccc23)n1 (stereo unspecified) + CC(CO)NC(=O)c1cc(-c2ccc(Cl)cc2)nn(-c2cnn(C)c2)c1=O	101
Cn1ncnc1C1c2n[nH]c(=O)c3cc(F)cc(c23)NC1c1ccc(F)cc1 (stereo unspecified) + CC(CO)NC(=O)c1cc(-c2ccc(Cl)cc2)nn(-c2cnn(C)c2)c1=O	90.2
Nc1ncn(C2CC(O)C(CO)O2)c(=O)n1 (stereo unspecified) + Cc1cncc(-c2nc(NCCc3c[nH]c4ccccc34)c3ncn(C(C)C)c3n2)c1	94.8
COc1cc(C2c3cc4c(cc3C(OC3OC5COC(C)OC5C(O)C3O)C3COC(=O)C23)OCO4)cc(OC)c1O (stereo unspecified) + Cc1cncc(-c2nc(NCCc3c[nH]c4ccccc34)c3ncn(C(C)C)c3n2)c1	105
COc1ccc([C@@H](O)c2cc(-c3ncnc4cc(N5CCOCC5)ccc34)c(F)cc2Cl)nn1 + Cc1ccccc1N=Nc1ccc(NC(=O)c2ccnn2C)c(C)c1	93.9

Fill in the recorded viability, T/C for this compound, with LG0703-F498-PDC complex spheroid growth as test system: CC(C)c1c(-c2ccccc2)nc2c(C#N)c[nH]n2c1=O + CC(CO)NC(=O)c1cc(-c2ccc(Cl)cc2)nn(-c2cnn(C)c2)c1=O 94.2
